Biological target: A2AARs (Homo sapiens, UniProt P29274)
Sequence (P29274 whole entry): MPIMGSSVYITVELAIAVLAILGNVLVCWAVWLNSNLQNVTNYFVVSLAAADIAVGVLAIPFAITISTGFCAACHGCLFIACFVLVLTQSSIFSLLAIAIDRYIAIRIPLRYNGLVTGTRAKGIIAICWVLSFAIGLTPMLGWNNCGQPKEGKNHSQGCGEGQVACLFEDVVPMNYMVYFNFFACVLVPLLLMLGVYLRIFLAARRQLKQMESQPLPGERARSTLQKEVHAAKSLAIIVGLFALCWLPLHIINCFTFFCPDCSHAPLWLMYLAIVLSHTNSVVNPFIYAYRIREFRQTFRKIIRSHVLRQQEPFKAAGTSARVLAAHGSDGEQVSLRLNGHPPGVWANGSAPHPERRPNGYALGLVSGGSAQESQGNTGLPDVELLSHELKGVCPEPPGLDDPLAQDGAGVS
Test: [3H]ZM241385 competition binding in A375 melanoma membranes

{"smiles text": "COc1ccccc1CNc1nc(N)c2nc(-c3ccco3)sc2n1", "Ki": "5.8 pM"}
